- protocolDescription: chemical genetic growth profiling, strain panel (AID 1159580);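 note: tested at 20 µM; growth read once vehicle control cultures reached saturation at 30 °C; 1 = growth at the plate median or of vehicle wells; lower values mean less growth of the strain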
- conditionSet: S. cerevisiae deletion strains, growth OD, locus YEL061C, strain CIN8
The whole screen tested about 5,500 compounds, of which about 2,000 (36%) were called active. Not shown: some 18% with an inconclusive outcome. Cut-off read from the data, not from the text of the source: active = normalized growth mostly below about 0.91 (no sharp cut-off); inconclusive = no clear call, values can overlap the other calls; inactive = mostly above about 0.92. The list shows a part of the results.
Possible outcomes: 1.0 = active, 0.0 = inactive

- smilesStr: "COc1cccc2c1CCC1=CC(=O)CC[C@@]12C"
  label: 0.0
- smilesStr: "COc1cc(NC(=S)N2CCN(c3ccccc3OC)CC2)c(OC)cc1Cl"
  label: 0.0
- smilesStr: "COc1ccccc1N1CCN(C(=O)Nc2cc(Cl)cc(Cl)c2)CC1"
  label: 0.0
- smilesStr: "N#Cc1c(Cl)cccc1N1CCC(C(=O)NC(=O)Nc2ccc(Cl)cc2)CC1"
  label: 0.0
- smilesStr: "N#Cc1c(Cl)cccc1N1CCCC1"
  label: 1.0
- smilesStr: "CN(C)CC[C@H](c1ccc(Cl)cc1)c1ccccn1"
  label: 0.0
- smilesStr: "N#Cc1c(Cl)cccc1Cl"
  label: 0.0
- smilesStr: "COc1ccccc1N1CCN(CCCNc2cc(=O)n(C)c(=O)n2C)CC1"
  label: 0.0
- smilesStr: "COc1ccccc1N1CCN(C(=O)c2cccs2)CC1"
  label: 0.0
